Data credit: ChEMBL document CHEMBL1122831

Tested on: Streptococcus pyogenes
measurement_notes: Minimum inhibition concentration in vitro determined against Streptococcus pyogenes 930
Type: functional
readout_kind: MIC (mg/L)

Solved cases (2 shown):
| chemical_structure | subject_of_test | MIC (mg/L) |
| --- | --- | --- |
| CN1CCN(c2cc3c(cc2F)c(=O)c(C(=O)O)cn3-c2ccc(O)cc2)CC1 | Streptococcus pyogenes | 0.2 |
| Cc1ccc(-n2cc(C(=O)O)c(=O)c3cc(F)c(N4CCN(C)CC4)cc32)cc1 | Streptococcus pyogenes | 12.5 |

[P] CN1CCN(c2cc3c(cc2F)c(=O)c(C(=O)O)cn3-c2cccc(F)c2)CC1
[Q] CN1CCN(c2cc3c(cc2F)c(=O)c(C(=O)O)cn3-c2ccc3c(c2)OCO3)CC1
[R] CN1CCN(c2cc3c(cc2F)c(=O)c(C(=O)O)cn3-c2ccccc2)CC1
[S] CCCCN1CCN(c2cc3c(cc2F)c(=O)c(C(=O)O)cn3-c2ccc(F)cc2)CC1
Asked: Rank ascending by MIC. Return the labels ranked in the requested order, please.
Given back: R, S, Q, P
